Recorded values, source PubChem BioAssay AID686978.

# experimental.protocol: qHTS for Inhibitors of human tyrosyl-DNA phosphodiesterase 1 (TDP1): qHTS in cells in absence of CPT; also: nearly all actives have a fitted effect of over 55% in size
# condition.parameters: DT40 Tdp1-/- hTDP1 cells, no CPT, ATP luminescence, 48 h
Out of some 420,000 compounds screened, about 64,000 (15%) were called active. About 27% were inconclusive and are not listed. Calls follow the shape of the dose curve; as a rule, active = well fitted inhibition curve with a large enough effect; inconclusive = small, poorly fitted or top-dose-only effect; inactive = flat fitted curve, though single readings scatter. Only a sample is shown.
Your answer must be one of the following: active, inactive

Worked cases, answers included:
[[record]]
molecule = "O=C(NCCCN1CCCCCC1)C1CC(=O)N(C2CCCC2)C1 (configuration not stated)"
assigned_category = "inactive"

[[record]]
molecule = "O=C(NC1CCC(O)CC1)c1ccccc1OCc1ccc(F)cc1 (configuration not stated)"
assigned_category = "inactive"

[[record]]
molecule = "COc1ccccc1N1CC(C(=O)Nc2ccc(S(=O)(=O)N3CCOCC3)cc2)CC1=O (configuration not stated)"
assigned_category = "inactive"


[Q] For COc1ccccc1CN1CCNC(=O)C1CC(=O)N(C)CC1CCOCC1 (configuration not stated) , what call appears in the results of this test?
[A] inactive

[Q] For CCOc1ccc(C(C(=O)NCCOC)N(CCOC)C(=O)CCC(=O)Nc2ccccn2)cc1 (configuration not stated) , what call appears in the results of this test?
[A] inactive

[Q] For Cc1ccc(CNC(=O)C2CCCN2C(=O)NCc2ccccc2)cc1 (configuration not stated) , what call appears in the results of this test?
[A] inactive

[Q] For `O=C(NCc1cccnc1)c1cnc2ccccc2n1` , what call appears in the results of this test?
[A] inactive

[Q] For `N/C(Cc1ccc([N+](=O)[O-])cc1)=N\OC(=O)COc1ccc2ccccc2c1` , what call appears in the results of this test?
[A] inactive

[Q] For `COc1ccc(C(=NN)c2ccc(OC)cc2)cc1` , what call appears in the results of this test?
[A] inactive

[Q] For COc1ccc(S(=O)(=O)NC(=O)C2(C)CCN2C(=O)c2ccccc2CCc2ccccc2)cc1 (configuration not stated) , what call appears in the results of this test?
[A] inactive

[Q] For C[n+]1ccccc1C1CCCC/C1=N\Nc1ccc([N+](=O)[O-])cc1[N+](=O)[O-] (configuration not stated) , what call appears in the results of this test?
[A] inactive

[Q] For `COc1ccccc1C(=O)Nn1cnnc1` , what call appears in the results of this test?
[A] inactive

[Q] For `CCOc1ccc(N/C=C/C(=O)c2cc(OC)c(OC)c(OC)c2)cc1` , what call appears in the results of this test?
[A] active

[Q] For CCC1CCCCN1C(=S)Nc1ccc(C(C)=O)cc1 (configuration not stated) , what call appears in the results of this test?
[A] inactive

[Q] For Cc1cc(C)cc(NC(=O)C(OC(=O)c2ccc(O)cc2)c2ccccc2)c1 (configuration not stated) , what call appears in the results of this test?
[A] inactive

[Q] For COc1ccc(CCN2CC(C(=O)OCC(=O)NCc3ccccc3Cl)CC2=O)cc1OC (configuration not stated) , what call appears in the results of this test?
[A] inactive

* * *

# experimental.protocol: qHTS for Inhibitors of human tyrosyl-DNA phosphodiesterase 1 (TDP1): qHTS in cells in absence of CPT; also: nearly all actives have a fitted effect of over 55% in size
# condition.parameters: DT40 Tdp1-/- hTDP1 cells, no CPT, ATP luminescence, 48 h
Out of some 420,000 compounds screened, about 64,000 (15%) were called active. Roughly 27% stayed inconclusive and do not appear here. Calls come from the whole dose curve; as a rule, active = well fitted inhibition curve with a large enough effect; inconclusive = small, poorly fitted or top-dose-only effect; inactive = flat fitted curve, though single readings scatter. The list is a sample of the results.
Your answer must be one of the following: label 1 = active, label 0 = inactive

[Q] For `O=C(OCC(=O)N1CCCCCC1)c1ccc(Br)c(S(=O)(=O)N2CCOCC2)c1` , what call appears in the results of this test?
[A] label 0

[Q] For `CCOc1ccccc1N(CC(=O)NC1CCCCC1)C(=O)CCCC(=O)Nc1ccccn1` , what call appears in the results of this test?
[A] label 0

[Q] For OC(CBr)CN1CCCCC1 (stereo unspecified) , what call appears in the results of this test?
[A] label 0

[Q] For `CC(=O)N1CCC2(CCCN(Cc3ccccc3)C2)CC1` , what call appears in the results of this test?
[A] label 0

[Q] For `CN(C)c1ccc(/C=C/c2c3ccccc3nc3ccccc23)cc1` , what call appears in the results of this test?
[A] label 1

[Q] For `O=C(O)CCn1c(Cc2ccccc2)nc2ccccc21` , what call appears in the results of this test?
[A] label 0
